Molecular target: PI3Kα H1047R (Homo sapiens, UniProt P42336, H1047R)
Sequence (P42336 whole entry H1047R): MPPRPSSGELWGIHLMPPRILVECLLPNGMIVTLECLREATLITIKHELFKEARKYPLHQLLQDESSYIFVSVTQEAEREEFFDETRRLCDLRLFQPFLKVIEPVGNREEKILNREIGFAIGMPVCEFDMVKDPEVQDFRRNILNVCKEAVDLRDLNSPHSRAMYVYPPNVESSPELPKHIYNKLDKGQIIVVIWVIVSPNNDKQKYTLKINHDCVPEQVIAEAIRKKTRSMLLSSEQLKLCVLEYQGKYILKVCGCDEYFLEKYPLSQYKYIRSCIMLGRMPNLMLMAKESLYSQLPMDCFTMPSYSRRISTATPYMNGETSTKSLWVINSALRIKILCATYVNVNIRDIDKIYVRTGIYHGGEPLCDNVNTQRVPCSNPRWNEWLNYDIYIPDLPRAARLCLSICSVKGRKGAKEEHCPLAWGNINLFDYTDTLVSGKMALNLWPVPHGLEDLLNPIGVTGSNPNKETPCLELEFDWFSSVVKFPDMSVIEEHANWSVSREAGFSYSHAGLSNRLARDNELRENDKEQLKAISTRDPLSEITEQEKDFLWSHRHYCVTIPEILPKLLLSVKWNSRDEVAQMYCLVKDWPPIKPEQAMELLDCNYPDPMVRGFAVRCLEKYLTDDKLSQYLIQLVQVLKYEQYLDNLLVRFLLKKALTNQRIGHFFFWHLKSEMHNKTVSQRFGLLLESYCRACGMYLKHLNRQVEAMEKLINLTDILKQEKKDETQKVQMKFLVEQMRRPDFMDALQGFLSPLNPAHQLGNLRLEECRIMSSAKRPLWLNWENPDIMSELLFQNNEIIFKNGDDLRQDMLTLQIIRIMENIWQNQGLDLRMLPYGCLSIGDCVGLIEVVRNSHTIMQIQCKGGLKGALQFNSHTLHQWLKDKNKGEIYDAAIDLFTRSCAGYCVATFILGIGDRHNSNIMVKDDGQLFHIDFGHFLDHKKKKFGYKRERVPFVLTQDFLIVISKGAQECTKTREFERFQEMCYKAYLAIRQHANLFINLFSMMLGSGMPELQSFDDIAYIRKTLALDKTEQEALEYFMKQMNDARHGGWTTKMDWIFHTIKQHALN
Sequence (P27986 whole entry partner): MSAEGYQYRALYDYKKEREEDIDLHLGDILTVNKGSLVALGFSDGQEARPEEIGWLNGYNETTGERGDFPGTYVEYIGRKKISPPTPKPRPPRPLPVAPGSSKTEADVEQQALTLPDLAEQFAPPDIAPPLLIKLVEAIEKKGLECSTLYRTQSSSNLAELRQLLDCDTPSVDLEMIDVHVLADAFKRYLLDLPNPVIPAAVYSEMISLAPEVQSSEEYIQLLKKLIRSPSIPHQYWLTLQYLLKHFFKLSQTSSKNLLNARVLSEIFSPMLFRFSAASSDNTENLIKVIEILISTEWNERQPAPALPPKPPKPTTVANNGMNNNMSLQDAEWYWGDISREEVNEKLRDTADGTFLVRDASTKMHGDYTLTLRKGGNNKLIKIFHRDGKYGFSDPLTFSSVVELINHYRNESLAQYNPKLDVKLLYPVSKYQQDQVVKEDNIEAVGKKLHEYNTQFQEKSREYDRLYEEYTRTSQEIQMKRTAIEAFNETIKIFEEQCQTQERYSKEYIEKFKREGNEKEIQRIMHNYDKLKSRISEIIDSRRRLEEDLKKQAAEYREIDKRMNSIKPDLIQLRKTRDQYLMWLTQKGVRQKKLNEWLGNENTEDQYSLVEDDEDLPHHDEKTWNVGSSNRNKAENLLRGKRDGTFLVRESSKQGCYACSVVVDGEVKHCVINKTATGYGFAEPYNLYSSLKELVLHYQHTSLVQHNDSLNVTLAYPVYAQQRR
Assay: ADP-Glo assay
Conditions: 2 nM H1047R enzyme; 1 hour incubation with compound at room temperature; ATPase reaction 100 min
Parameter: IC50

In [3]: df
Out[3]:
                                   compound                               measured_on  parameter  observed_value
0  Cc1c([C@@H](NC(=O)Nc2cnc(N)nc2)C(F)(F)F)nn2ccccc12 (racemic)  PI3Kα H1047R (Homo sapiens, UniProt P42336, H1047R)       IC50        ≥ 500 nM
1  CC(C)C(NC(=O)Nc1cnc(N)nc1)c1cc2ccc(F)cc2n1C (stereo not shown)  PI3Kα H1047R (Homo sapiens, UniProt P42336, H1047R)       IC50        < 200 nM
2  Cc1c([C@@H](NC(=O)Nc2cnc(N)nc2)C(F)(F)F)nc2ccc(F)cn12 (racemic)  PI3Kα H1047R (Homo sapiens, UniProt P42336, H1047R)       IC50        ≥ 500 nM
3  Cn1c([C@@H](NC(=O)Nc2cnc(N)nc2)C(F)(F)F)nc2c(F)cc(F)cc21 (racemic)  PI3Kα H1047R (Homo sapiens, UniProt P42336, H1047R)       IC50        < 200 nM
4  Cn1c([C@@H](NC(=O)Nc2cnc(N)nc2)C(F)(F)F)cc2c(F)cc(F)cc21 (racemic)  PI3Kα H1047R (Homo sapiens, UniProt P42336, H1047R)       IC50        < 200 nM
5  Cc1c([C@@H](NC(=O)Nc2cnc(N)nc2)C(F)(F)F)n(C)c2c(F)cc(F)cc12  PI3Kα H1047R (Homo sapiens, UniProt P42336, H1047R)       IC50   200 to 500 nM
6  Cn1c(C(NC(=O)Nc2cnc(N)nc2)C(F)(F)F)cc2ccc(F)cc21 (stereo not shown)  PI3Kα H1047R (Homo sapiens, UniProt P42336, H1047R)       IC50        < 200 nM
